Reported IC50 for target or system NADP-dependent malic enzyme, mitochondrial (Homo sapiens), by entry.
Quick note: give the figure in nM, leave out the unit.

Request: Need IC50 of COCCOc1ccc(CCC(=O)N2CCN(c3ccc(O)cn3)CC2)cc1 , thanks.
Result: 580

Request: Need IC50 of O=C(CCc1ccc(F)cc1)N1CCN(c2ccc(O)cn2)CC1 , thanks.
Result: 410

Request: Need IC50 of O=C(CCc1cccs1)N1CCN(c2ccc(O)cn2)CC1 , thanks.
Result: 160

Request: Need IC50 of O=C(CCc1ccccc1)N1CCN(c2ccc(O)cn2)CC1 , thanks.
Result: 230

Request: Need IC50 of O=C(CCc1ccc(Cl)cc1)N1CCN(c2ccc(O)cn2)CC1 , thanks.
Result: 140

Request: Need IC50 of O=C(Cc1ccccc1)N1CCN(c2ccc(O)cn2)CC1 , thanks.
Result: 200

Request: Need IC50 of O=C(Cc1ccccc1)NC1CCN(c2ccc(O)cc2)CC1 , thanks.
Result: 70

Request: Need IC50 of O=C(O)c1cc2ccccc2c(Cc2cc3ccccc3c(C(=O)O)c2O)c1O , thanks.
Result: 5600

Request: Need IC50 of O=C(CCc1cc2ccccc2s1)N1CCN(c2ccc(O)cn2)CC1 , thanks.
Result: 240

Request: Need IC50 of O=C(CCc1ccccc1)N1CCN(c2ccc(O)cc2)CC1 , thanks.
Result: 100

Request: Need IC50 of O=C(Cc1ccccc1)N1CCN(c2ccc(O)cc2)CC1 , thanks.
Result: 100

Request: Need IC50 of O=C1CC(N2CCN(c3ccc(O)cc3)CC2)C(=O)N1c1ccccc1 (configuration not stated) , thanks.
Result: 150

Request: Need IC50 of O=C(Nc1ccccc1)C1CCN(c2ccc(O)cc2)CC1 , thanks.
Result: 130

Request: Need IC50 of O=C(CN1CCN(c2ccc(O)cc2)CC1)Nc1ccccc1 , thanks.
Result: 110

Request: Need IC50 of CC(C)(CC(=O)N1CCN(c2ccc(O)cn2)CC1)c1ccc(F)cc1 , thanks.
Result: 310

Request: Need IC50 of O=C(Nc1ccccc1)N1CCN(c2ccc(O)cc2)CC1 , thanks.
Result: 110

Request: Need IC50 of CCCCOc1ccc(CCC(=O)N2CCN(c3ccc(O)cn3)CC2)cc1 , thanks.
Result: 390

###

system: BXPC-3; experiment: Antiproliferative activity against SMAD4/ME2-null human BXPC-3 cells assessed as inhibition of cell growth at 1 uM incubated for 72 hrs by CellTiter-Glo luminescence assay; type: functional
Field: inhibition at 1 µM. Provide a value for each of the compounds that follow.
Quick note: give the figure in %, leave out the unit.

Request: Need inhibition at 1 µM of Oc1ccc(N2CCNCC2)nc1 , thanks.
Result: 2

Request: Need inhibition at 1 µM of CC(=O)N1CCN(c2ccc(O)cn2)CC1 , thanks.
Result: 0

Request: Need inhibition at 1 µM of Oc1ccc(N2CCN(CC3CC3)CC2)nc1 , thanks.
Result: 0

Request: Need inhibition at 1 µM of CC(C)CN1CCN(c2ccc(O)cn2)CC1 , thanks.
Result: 0

Request: Need inhibition at 1 µM of O=C(C1CC1)N1CCN(c2ccc(O)cn2)CC1 , thanks.
Result: 0

###

Field: IC50. Provide a value for each of the molecules that follow.
molecular target: NADP-dependent malic enzyme (Homo sapiens); assay: Inhibition of His-tagged human recombinant full length ME1 using L-malate and beta-NADP+ as substrate preincubated with enzyme for 5 mins followed by beta-NADP+ challenge and incubated under shaking for 5 mins followed by incubation for 2 hrs without shaking by resorufin dye based fluorescence analysis; settings: read-out: IC50
Sequence (P48163 whole entry): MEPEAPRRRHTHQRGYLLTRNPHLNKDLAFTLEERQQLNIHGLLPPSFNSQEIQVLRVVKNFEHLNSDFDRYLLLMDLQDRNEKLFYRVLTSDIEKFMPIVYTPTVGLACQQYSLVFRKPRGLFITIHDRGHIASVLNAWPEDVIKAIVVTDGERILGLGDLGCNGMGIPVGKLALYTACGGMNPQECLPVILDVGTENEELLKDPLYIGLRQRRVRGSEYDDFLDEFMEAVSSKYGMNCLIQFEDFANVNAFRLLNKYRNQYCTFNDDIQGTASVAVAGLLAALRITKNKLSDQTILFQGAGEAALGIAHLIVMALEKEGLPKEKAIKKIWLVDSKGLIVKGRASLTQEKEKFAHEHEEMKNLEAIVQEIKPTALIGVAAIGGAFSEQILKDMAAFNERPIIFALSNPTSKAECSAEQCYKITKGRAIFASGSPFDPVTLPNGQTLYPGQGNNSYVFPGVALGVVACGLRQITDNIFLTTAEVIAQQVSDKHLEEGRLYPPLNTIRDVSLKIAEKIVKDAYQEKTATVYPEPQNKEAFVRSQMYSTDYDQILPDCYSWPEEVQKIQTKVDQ
Quick note: give the figure in nM, leave out the unit.

Request: What measured IC50 is associated with O=C(Nc1nnn[nH]1)C1c2ccccc2OC2C=CC=CC21 (stereo unspecified) on NADP-dependent malic enzyme (Homo sapiens)?
Result: 220

Request: What measured IC50 is associated with O=C(Nc1nnn[nH]1)c1cc(-c2ccccc2)nc2ccccc12 on NADP-dependent malic enzyme (Homo sapiens)?
Result: 13800

Request: What measured IC50 is associated with CC(C)(CC(=O)N1CCN(c2ccc(O)cn2)CC1)c1ccc(F)cc1 on NADP-dependent malic enzyme (Homo sapiens)?
Result: 1300

Request: What measured IC50 is associated with O=C(CCc1ccccc1)N1CCN(c2ccc(O)cn2)CC1 on NADP-dependent malic enzyme (Homo sapiens)?
Result: 1500

Request: What measured IC50 is associated with O=C(CCc1cc2ccccc2s1)N1CCN(c2ccc(O)cn2)CC1 on NADP-dependent malic enzyme (Homo sapiens)?
Result: 1200

Request: What measured IC50 is associated with O=C(Nc1ccccc1)N1CCN(c2ccc(O)cc2)CC1 on NADP-dependent malic enzyme (Homo sapiens)?
Result: 200

###

target: NADP-dependent malic enzyme, mitochondrial (Homo sapiens); details: dose 0.1 µM, time 190.0 min
Sequence (Q16798 whole entry): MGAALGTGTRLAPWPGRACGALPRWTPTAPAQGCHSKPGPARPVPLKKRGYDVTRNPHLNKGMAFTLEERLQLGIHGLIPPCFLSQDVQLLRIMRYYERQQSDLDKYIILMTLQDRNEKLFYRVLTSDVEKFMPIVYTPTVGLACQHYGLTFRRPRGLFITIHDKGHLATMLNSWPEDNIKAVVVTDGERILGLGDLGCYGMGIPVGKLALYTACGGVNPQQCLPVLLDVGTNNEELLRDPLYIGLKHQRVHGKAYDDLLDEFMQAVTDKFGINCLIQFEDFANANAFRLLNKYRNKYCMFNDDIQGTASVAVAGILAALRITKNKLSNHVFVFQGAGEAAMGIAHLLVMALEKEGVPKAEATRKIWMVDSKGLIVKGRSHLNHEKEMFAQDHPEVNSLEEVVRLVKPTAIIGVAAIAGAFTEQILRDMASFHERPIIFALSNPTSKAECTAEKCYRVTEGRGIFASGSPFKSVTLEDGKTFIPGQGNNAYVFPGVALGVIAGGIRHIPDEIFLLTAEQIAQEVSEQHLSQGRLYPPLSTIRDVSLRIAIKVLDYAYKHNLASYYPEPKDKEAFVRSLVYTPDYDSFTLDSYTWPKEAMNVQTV
readout label: inhibition (%)
Quick note: give the figure in %, leave out the unit.

Request: Need inhibition of Oc1ccc(N2CCNCC2)nc1 , thanks.
Result: 0

Request: Need inhibition of O=C(C1CC1)N1CCN(c2ccc(O)cn2)CC1 , thanks.
Result: 14

Request: Need inhibition of Oc1ccc(N2CCN(CC3CC3)CC2)nc1 , thanks.
Result: 0

Request: Need inhibition of CC(=O)N1CCN(c2ccc(O)cn2)CC1 , thanks.
Result: 23

Request: Need inhibition of CC(C)CN1CCN(c2ccc(O)cn2)CC1 , thanks.
Result: 0

###

experiment: Selectivity for SMAD4/ME2-null human BXPC-3 cells over human HCE-T cells
readout label: Selectivity ratio
Answer using only a numeral; do not append any unit.

Request: Need Selectivity ratio of CC(C)(CC(=O)N1CCN(c2ccc(O)cc2)CC1)c1ccccc1 , thanks.
Result: 5

Request: Need Selectivity ratio of CC(C)(CC(=O)N1CCN(c2ccc(O)cn2)CC1)c1ccc(F)cc1 , thanks.
Result: 5

Request: Need Selectivity ratio of O=C(/C=C/c1ccccc1)N1CCN(c2ccc(O)cc2)CC1 , thanks.
Result: 5

Request: Need Selectivity ratio of O=C(CCc1ccccc1)N1CCN(c2ccc(O)cc2)CC1 , thanks.
Result: 5

Request: Need Selectivity ratio of O=C(Nc1ccccc1)N1CCN(c2ccc(O)cc2)CC1 , thanks.
Result: 5

Request: Need Selectivity ratio of O=C(Cc1ccccc1)N1CCN(c2ccc(O)cc2)CC1 , thanks.
Result: 5

###

molecular target: NADP-dependent malic enzyme (Homo sapiens); assay: Inhibition of His-tagged human recombinant full length ME1 using L-malate and beta-NADP+ as substrate preincubated with enzyme for 5 mins followed by beta-NADP+ challenge and incubated under shaking for 5 mins followed by incubation for 2 hrs without shaking by resorufin dye based fluorescence analysis; details: read-out: IC50
Please use fulfilled for IC50 under 600 nM and not fulfilled for everything else, ties included.

Request: For this molecule, is IC50 lower than 600 nM? CCCCOc1ccc(CCC(=O)N2CCN(c3ccc(O)cc3)CC2)cc1
Result: fulfilled

Request: For this molecule, is IC50 lower than 600 nM? O=C(CCc1ccccc1)N1CCN(c2ccc(O)cc2)CC1
Result: fulfilled

Request: For this molecule, is IC50 lower than 600 nM? O=C(Cc1ccc(Cl)cc1)N1CCN(c2ccc(O)cc2)CC1
Result: fulfilled

Request: For this molecule, is IC50 lower than 600 nM? CC(C)(CC(=O)N1CCN(c2ccc(O)cc2)CC1)c1ccccc1
Result: fulfilled

Request: For this molecule, is IC50 lower than 600 nM? CC(C)(CC(=O)N1CCN(c2ccc(O)cn2)CC1)c1ccccc1
Result: not fulfilled

Request: For this molecule, is IC50 lower than 600 nM? O=C(CN1CCN(c2ccc(O)cc2)CC1)Nc1ccccc1
Result: fulfilled

Request: For this molecule, is IC50 lower than 600 nM? O=C(CCc1cccs1)N1CCN(c2ccc(O)cn2)CC1
Result: not fulfilled

Request: For this molecule, is IC50 lower than 600 nM? O=C(Cc1ccccc1)N1CCN(c2ccc(O)cn2)CC1
Result: not fulfilled

Request: For this molecule, is IC50 lower than 600 nM? CCCCOc1ccc(CCC(=O)N2CCN(c3ccc(O)cn3)CC2)cc1
Result: not fulfilled

Request: For this molecule, is IC50 lower than 600 nM? O=C1CC(N2CCN(c3ccc(O)cc3)CC2)C(=O)N1c1ccccc1 (stereo not given)
Result: fulfilled

Request: For this molecule, is IC50 lower than 600 nM? O=C(CCc1ccc(Cl)cc1)N1CCN(c2ccc(O)cn2)CC1
Result: not fulfilled

Request: For this molecule, is IC50 lower than 600 nM? O=C(Cc1ccc(C(F)(F)F)cc1)N1CCN(c2ccc(O)cc2)CC1
Result: fulfilled

Request: For this molecule, is IC50 lower than 600 nM? O=C(/C=C/c1ccccc1)N1CCN(c2ccc(O)cc2)CC1
Result: fulfilled

Request: For this molecule, is IC50 lower than 600 nM? O=C(CCc1ccc(F)cc1)N1CCN(c2ccc(O)cn2)CC1
Result: not fulfilled

Request: For this molecule, is IC50 lower than 600 nM? O=C(Cc1ccccc1)N1CCN(c2ccc(O)cc2)CC1
Result: fulfilled

Request: For this molecule, is IC50 lower than 600 nM? O=C(O)c1cc2ccccc2c(Cc2cc3ccccc3c(C(=O)O)c2O)c1O
Result: not fulfilled

Request: For this molecule, is IC50 lower than 600 nM? COCCOc1ccc(CCC(=O)N2CCN(c3ccc(O)cn3)CC2)cc1
Result: not fulfilled

Request: For this molecule, is IC50 lower than 600 nM? COc1ccc(CCC(=O)N2CCN(c3ccc(O)cn3)CC2)cc1
Result: not fulfilled

Request: For this molecule, is IC50 lower than 600 nM? O=C(COc1ccccc1)N1CCN(c2ccc(O)cc2)CC1
Result: not fulfilled

Request: For this molecule, is IC50 lower than 600 nM? CC(C)(CC(=O)N1CCN(c2ccc(O)cn2)CC1)c1ccc(Cl)cc1
Result: not fulfilled
